Each recorded value in this set is attributed to patent US7084111.

experimental target: mouse melanocortin-3 receptor (mouse, UniProt P33033 1-323)
Sequence (P33033 whole entry): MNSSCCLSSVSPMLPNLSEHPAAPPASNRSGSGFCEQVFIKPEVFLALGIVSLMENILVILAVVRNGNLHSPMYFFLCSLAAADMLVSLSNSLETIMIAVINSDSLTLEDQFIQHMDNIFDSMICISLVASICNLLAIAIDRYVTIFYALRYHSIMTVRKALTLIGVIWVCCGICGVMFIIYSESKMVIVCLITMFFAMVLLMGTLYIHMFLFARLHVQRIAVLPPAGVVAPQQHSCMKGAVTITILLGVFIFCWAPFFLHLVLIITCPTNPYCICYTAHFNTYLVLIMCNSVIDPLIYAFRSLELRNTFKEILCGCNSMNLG
test: cell-based or functional assay
[ ]: non-standard residue; d: D form. Nle = CCCC[C@H](N)C(=O)O
Please provide measured EC50 (agonist) for the entries that follow.
Provide only the numeric value, understood in µM.

Qu. Any idea what EC50 (agonist) was measured for YDHXRXNAFXY (Asp-Dpr side chain lactam bridge; Dpr; DPhe; Tic; C-terminal amide (amide resin)) [SEQ ID NO:42 (Tyr-c[Asp-His-DPhe-Arg-Tic-Asn-Ala-Phe-Dpr]-Tyr)] ?
Ans. 3.4

Qu. Reported EC50 (agonist) for YDHXRPNAFXY (Asp-Dpr side chain lactam bridge; Dpr; DPhe; C-terminal amide (amide resin)) [SEQ ID NO:38 (Tyr-c[Asp-His-DPhe-Arg-Pro-Asn-Ala-Phe-Dpr]-Tyr)] : what is it?
Ans. 39.2

Qu. Using the record for Ac-SYS[Nle]EHR[dF]FGKPV-NH2 (SMILES CCCC[C@H](NC(=O)[C@H](CO)NC(=O)[C@H](Cc1ccc(O)cc1)NC(=O)[C@H](CO)NC(C)=O)C(=O)N[C@@H](CCC(=O)O)C(=O)N[C@@H](Cc1c[nH]cn1)C(=O)N[C@@H](CCCNC(=N)N)C(=O)N[C@H](Cc1ccccc1)C(=O)N[C@@H](Cc1ccccc1)C(=O)NCC(=O)N[C@@H](CCCCN)C(=O)N1CCC[C@H]1C(=O)N[C@H](C(N)=O)C(C)C) [SEQ ID NO:17 (Ac-Ser-Tyr-Ser-Nle-Glu-His-Arg-DPhe-Phe-Gly-Lys-Pro-Val-NH2)] , report its EC50 (agonist).
Ans. 6.21

Qu. Quick one: EC50 (agonist) for YDAXRWNAFXY (Asp-Dpr side chain lactam bridge; Dpr; DPhe; C-terminal amide (amide resin)) [SEQ ID NO:24 (Tyr-c[Asp-Ala-DPhe-Arg-Trp-Asn-Ala-Phe-Dpr]-Tyr)] ?
Ans. 0.029

Qu. Please look up its EC50 (agonist): YDHXRWNAFXY (Asp-Dpr side chain lactam bridge; Dpr; DBip; C-terminal amide (amide resin)) [SEQ ID NO:35 (Tyr-c[Asp-His-DBip-Arg-Trp-Asn-Ala-Phe-Dpr]-Tyr)]
Ans. 0.033
